Just for reference, ChEMBL document CHEMBL1201862 is where these values come from.

- Test system: HOP-92
- assay.method.text: NCI tumour cell line growth inhibition, 48 h
Calls of active or inactive are those of the source. Cut-off read from the data, not from the text of the source: active = GI50 up to about 1.1 µM and inactive = higher.
Reply using exactly one outcome from t (active), f (inactive)

Examples from the recorded data:
1. CC1=NN(c2ccc(S(=O)(=O)O)cc2)C2(C1)C(Cl)C(=O)N2c1nc2ccccc2s1 (configuration not stated)
f
2. CC(C)SC1SCC2C(=O)N(C)C3(CC3C)C(=O)OCC(NC(=O)c3nc4ccccc4cc3O)C(=O)NC(C)C(=O)N(C)C1C(=O)N(C)C1(CC1C)C(=O)OCC(NC(=O)c1nc3ccccc3cc1O)C(=O)NC(C)C(=O)N2C (configuration not stated)
t
3. Cc1c(/C=C2\CC/C(=C\c3[nH]c(C(=O)OC(C)(C)C)c(C)c3C)C2=O)[nH]c(C(=O)OC(C)(C)C)c1C
f

Query: Each compound tested received a call. Report the one for CCC(C#N)NCc1ccc(CNC(C#N)CC)cc1 (configuration not stated) .
Reply: f

Query: Each compound tested received a call. Report the one for Cc1nn(C(=O)c2ccncc2)c2c1C(c1cccc([N+](=O)[O-])c1)SC(=N)N2 (configuration not stated) .
Reply: f
